Biological target: CREB-binding protein (Homo sapiens, UniProt Q92793)
Sequence (Q92793 whole entry, the tested form may be a part): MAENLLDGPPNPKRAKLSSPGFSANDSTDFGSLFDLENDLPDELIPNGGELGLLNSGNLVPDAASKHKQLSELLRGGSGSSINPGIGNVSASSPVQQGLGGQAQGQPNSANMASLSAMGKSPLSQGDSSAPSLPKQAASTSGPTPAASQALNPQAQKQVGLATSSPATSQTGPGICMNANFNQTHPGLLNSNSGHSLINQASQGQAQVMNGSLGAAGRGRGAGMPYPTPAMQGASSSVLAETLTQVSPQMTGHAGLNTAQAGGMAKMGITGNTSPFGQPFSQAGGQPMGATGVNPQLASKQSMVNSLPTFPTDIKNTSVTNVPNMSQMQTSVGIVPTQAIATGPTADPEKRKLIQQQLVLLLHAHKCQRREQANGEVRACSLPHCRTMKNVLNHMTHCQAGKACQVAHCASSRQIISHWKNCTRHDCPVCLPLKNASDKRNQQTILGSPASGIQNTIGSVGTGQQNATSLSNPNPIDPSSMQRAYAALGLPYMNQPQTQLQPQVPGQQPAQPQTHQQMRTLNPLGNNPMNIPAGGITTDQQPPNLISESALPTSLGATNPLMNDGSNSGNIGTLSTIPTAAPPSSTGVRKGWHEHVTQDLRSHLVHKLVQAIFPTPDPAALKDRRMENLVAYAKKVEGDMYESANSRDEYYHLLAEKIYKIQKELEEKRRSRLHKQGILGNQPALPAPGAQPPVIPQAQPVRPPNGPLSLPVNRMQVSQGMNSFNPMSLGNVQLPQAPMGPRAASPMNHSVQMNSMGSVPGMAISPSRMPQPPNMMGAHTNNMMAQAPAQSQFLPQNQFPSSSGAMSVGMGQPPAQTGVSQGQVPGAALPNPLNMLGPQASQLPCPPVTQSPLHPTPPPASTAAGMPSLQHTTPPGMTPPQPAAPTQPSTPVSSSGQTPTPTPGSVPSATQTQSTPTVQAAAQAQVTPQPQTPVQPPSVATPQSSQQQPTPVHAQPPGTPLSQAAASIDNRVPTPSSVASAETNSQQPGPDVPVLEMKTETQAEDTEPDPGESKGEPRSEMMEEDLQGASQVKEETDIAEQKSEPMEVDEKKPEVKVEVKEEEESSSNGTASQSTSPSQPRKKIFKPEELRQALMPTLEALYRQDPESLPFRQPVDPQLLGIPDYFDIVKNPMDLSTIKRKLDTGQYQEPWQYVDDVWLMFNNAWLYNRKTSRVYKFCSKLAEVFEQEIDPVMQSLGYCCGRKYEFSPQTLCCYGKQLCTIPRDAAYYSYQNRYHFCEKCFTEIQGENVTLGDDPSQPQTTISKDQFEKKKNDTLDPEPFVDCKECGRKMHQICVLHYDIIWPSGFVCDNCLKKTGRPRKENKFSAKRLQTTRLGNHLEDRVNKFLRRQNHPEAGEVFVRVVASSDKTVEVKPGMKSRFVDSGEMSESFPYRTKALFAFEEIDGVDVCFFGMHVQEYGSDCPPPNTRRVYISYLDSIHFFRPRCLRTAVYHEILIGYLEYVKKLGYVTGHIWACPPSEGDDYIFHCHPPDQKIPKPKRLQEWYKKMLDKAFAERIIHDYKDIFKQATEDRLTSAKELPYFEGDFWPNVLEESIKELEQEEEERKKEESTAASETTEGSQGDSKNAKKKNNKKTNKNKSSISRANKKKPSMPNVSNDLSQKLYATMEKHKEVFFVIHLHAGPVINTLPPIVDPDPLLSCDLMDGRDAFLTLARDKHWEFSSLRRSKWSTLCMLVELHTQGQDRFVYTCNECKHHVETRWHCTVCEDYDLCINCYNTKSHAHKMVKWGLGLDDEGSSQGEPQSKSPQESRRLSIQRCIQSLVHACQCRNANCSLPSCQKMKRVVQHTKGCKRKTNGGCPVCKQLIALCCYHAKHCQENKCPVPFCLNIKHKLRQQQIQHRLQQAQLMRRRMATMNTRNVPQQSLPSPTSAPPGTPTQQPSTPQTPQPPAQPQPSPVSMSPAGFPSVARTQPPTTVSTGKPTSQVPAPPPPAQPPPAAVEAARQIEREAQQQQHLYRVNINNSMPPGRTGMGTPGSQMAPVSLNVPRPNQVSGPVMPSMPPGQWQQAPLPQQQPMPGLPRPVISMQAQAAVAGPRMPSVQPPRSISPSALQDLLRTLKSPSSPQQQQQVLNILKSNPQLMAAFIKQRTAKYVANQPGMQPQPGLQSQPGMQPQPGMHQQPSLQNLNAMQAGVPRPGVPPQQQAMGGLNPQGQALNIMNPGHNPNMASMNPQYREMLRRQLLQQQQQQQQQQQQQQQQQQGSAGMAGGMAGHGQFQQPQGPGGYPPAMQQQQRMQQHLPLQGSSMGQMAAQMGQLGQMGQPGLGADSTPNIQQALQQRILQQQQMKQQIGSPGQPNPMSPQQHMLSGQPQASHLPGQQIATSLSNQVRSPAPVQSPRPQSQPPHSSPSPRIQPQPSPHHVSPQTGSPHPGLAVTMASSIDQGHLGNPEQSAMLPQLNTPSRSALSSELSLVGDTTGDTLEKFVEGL
Assay: Binding affinity to CBP bromodomain (unknown origin) assessed as dissociation constant
pKd: −log10 of the molar value.
measurement type: pKd

{"smiles notation": "COc1ccc2c(c1)N(CCC/C=C/c1cccc3c1N[C@@H](C)C(=O)N3)CCC2", "measurement type": "pKd", "obs value": 6.99}

* * *

Target: CREB-binding protein (Homo sapiens)
Assay: Inhibition of human CBP bromodomain (R1081 to G1197 residues) expressed in Escherichia coli BL21 (DE3) incubated for 2.5 hrs by luminescence-based AlphaScreen assay
pIC50: −log10 of the molar value.

{"smiles notation": "COc1ccn2c(C(C)=O)cc(C(=O)Nc3cc(CO)cc(-c4cnn(C)c4)c3F)c2c1", "assay system": "CREB-binding protein (Homo sapiens)", "pIC50": 7.00}
